- system-name: human EDG8 (S1PR5) receptor (Homo sapiens)
- Construct: carries the transgenes human EDG8 (S1PR5) receptor (Acession number NP_110387.1)
- Sequence (Q9H228 whole entry): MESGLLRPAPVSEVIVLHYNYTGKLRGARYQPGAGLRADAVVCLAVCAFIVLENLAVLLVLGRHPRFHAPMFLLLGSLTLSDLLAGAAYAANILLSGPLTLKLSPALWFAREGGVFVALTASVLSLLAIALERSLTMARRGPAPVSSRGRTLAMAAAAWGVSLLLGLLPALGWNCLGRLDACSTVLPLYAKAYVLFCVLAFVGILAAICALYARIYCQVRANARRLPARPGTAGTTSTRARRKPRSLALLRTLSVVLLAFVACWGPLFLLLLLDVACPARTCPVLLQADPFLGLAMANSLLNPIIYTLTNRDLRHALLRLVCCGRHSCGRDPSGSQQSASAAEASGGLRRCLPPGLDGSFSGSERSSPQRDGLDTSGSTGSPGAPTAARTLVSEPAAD
- assay-explanation: Aequorin assay, agonist potency, CHO-A21-EDG8#12 cells
- cond: agonist mode, aequorin luminescence; read-out: S1P5 EC50 range #
metric-name: EC50

Answered cases to consult:
{"columns": ["compound", "assay-result"],
 "data": [
  ["CCc1cccc(Cl)c1COc1ccc2c(c1)CC1(C2)CN(C2CC(C(=O)O)C2)C1 (stereo not shown)", "≤ 10 nM"],
  ["CCc1cccc(Cl)c1COc1ccc2c(c1)CC1(C2)CN(CC(=O)O)C1", "≤ 10 nM"],
  ["CC(Oc1ccc(C#Cc2ccc3c(c2)CC2(C3)CN(CC(=O)O)C2)cn1)C(F)(F)F (stereo not shown)", "≤ 10 nM"]
]}

Would you kindly look at the next entry?
I am curious: what EC50 value has been reported for COc1cccc(Cl)c1COc1ccc2c(c1)CC1(C2)CN(CC(=O)O)C1 ?
100 to 1000 nM

###

Each item that follows carries a reported EC50.
- system-name: S1P4 (Homo sapiens)
- assay-explanation: Aequorin assay, agonist potency, S1P4
- cond: agonist mode, aequorin luminescence

{"columns": ["compound", "assay-result"],
 "data": [
  ["O=C(O)C1CC(N2CC3(Cc4ccc(OCc5c(Cl)cccc5C5CC5)cc4C3)C2)C1 (centres unmarked)", "< 1000 nM"],
  ["COc1ccc(CCOc2ccc3c(c2)CC2(C3)CN(CC3(C(=O)O)CC3)C2)cc1", "> 1000 nM"]
]}

I am curious: what EC50 value has been reported for CC(C)Oc1ccc(CCc2ccc3c(c2)CC2(C3)CN(CC3(C(=O)O)CC3)C2)cn1 ?
> 1000 nM

I am curious: what EC50 value has been reported for CC1CCC(C#Cc2ccc3c(c2)CC2(C3)CN(CC(=O)O)C2)CC1 (centres unmarked) ?
< 1000 nM

I am curious: what EC50 value has been reported for CCOc1cc(F)c(COc2ccc3c(c2)CC2(C3)CN(C3CC(C(=O)O)C3)C2)c(F)c1 (centres unmarked) ?
< 1000 nM

I am curious: what EC50 value has been reported for CCc1cccc(F)c1COc1ccc2c(c1)CC1(C2)CN(CC2(C(=O)O)CC2)C1 ?
< 1000 nM

I am curious: what EC50 value has been reported for CC(Oc1ccc(C#Cc2ccc3c(c2)CC2(C3)CN(CC3(C(=O)O)CC3)C2)cn1)C(F)(F)F (centres unmarked) ?
> 1000 nM

I am curious: what EC50 value has been reported for O=C(O)C1(CN2CC3(Cc4ccc(OCc5cccc6c5CCC6)cc4C3)C2)CC1 ?
< 1000 nM

###

Each item that follows carries a reported pEC50.
- system-name: S1P4 (Homo sapiens, UniProt O95977)
- Sequence (O95977 1-384): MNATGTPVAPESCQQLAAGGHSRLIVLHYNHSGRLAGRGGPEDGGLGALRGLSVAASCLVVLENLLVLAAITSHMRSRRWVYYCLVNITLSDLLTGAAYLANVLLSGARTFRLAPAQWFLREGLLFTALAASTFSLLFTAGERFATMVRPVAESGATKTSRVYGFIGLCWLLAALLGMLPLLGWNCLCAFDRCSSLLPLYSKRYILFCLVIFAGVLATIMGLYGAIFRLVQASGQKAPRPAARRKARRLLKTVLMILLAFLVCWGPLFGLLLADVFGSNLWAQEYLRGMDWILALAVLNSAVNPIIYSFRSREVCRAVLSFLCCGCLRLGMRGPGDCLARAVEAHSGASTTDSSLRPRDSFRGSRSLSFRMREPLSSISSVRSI
- assay-explanation: Aequorin assay, agonist potency, S1P4
- cond: agonist mode, aequorin luminescence
pEC50: −log10 of the molar value.

{"columns": ["compound", "system-name", "metric-name", "assay-result"],
 "data": [
  ["CCOc1ccc(C#Cc2ccc3c(c2)CC2(C3)CN(C3CC(C(=O)O)C3)C2)cc1 (centres unmarked)", "S1P4 (Homo sapiens, UniProt O95977)", "pEC50", "< 6.00"]
]}

I am curious: what pEC50 value has been reported for COc1cccc(Cl)c1COc1ccc2c(c1)CC1(C2)CN(CC(=O)O)C1 ?
< 6.00

I am curious: what pEC50 value has been reported for O=C(O)CN1CC2(Cc3ccc(OCc4c(F)cccc4Cl)cc3C2)C1 ?
> 6.00

I am curious: what pEC50 value has been reported for O=C(O)CN1CC2(Cc3ccc(C#Cc4ccccc4Cl)cc3C2)C1 ?
> 6.00

I am curious: what pEC50 value has been reported for CC1CCC(C#Cc2ccc3c(c2)CC2(C3)CN(CC3(C(=O)O)CC3)C2)CC1 (mixture of isomers) ?
> 6.00
